- System: BT474 cells
- method_description: Basal pAkt and pERK1/2 signaling by immunoblotting in BT474 cells
- Type: cell-based
- recorded_conditions: Homo sapiens, BT-474; BT474 cells; read-out: concentration that provided a 50% inhibition of SHP2 mediated signaling
assay_endpoint: IC50 (µM)
Please reply with the bare figure in µM and do not write the unit itself.

Ask: Tell me reported IC50 for `CCCCCCCCCOc1ccc(-c2ccc(C(=O)O)cc2)cc1CCCC(=O)O` , tested with BT474 cells.
Reply: 0.5

====

- target_or_system: SHP1 (Homo sapiens)
- Construct: The GST fusion PTP domains of SHP1 and PTP1B were expressed and purified in a fashion similar to that of SHP2; GST
- Sequence (P29350 244-515 limits assumed): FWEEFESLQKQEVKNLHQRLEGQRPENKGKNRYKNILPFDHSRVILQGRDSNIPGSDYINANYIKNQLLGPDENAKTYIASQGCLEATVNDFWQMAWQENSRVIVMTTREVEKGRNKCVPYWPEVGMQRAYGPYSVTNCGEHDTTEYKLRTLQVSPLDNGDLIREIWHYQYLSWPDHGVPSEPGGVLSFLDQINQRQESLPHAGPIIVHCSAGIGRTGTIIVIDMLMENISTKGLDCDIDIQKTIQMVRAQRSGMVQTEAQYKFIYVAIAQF
- method_description: PTPase assay, GST-fusion PTP domain of SHP1, DiFMUP substrate
- recorded_conditions: PTP domain, 1 nM enzyme, 35 μM DiFMUP
assay_endpoint: pIC50
Here pIC50 is given on a logarithmic scale as minus log10 of the concentration in mol/L.

Ask: Looking for the measured pIC50 of CCCCCCCCCOc1ccc(-c2ccc(C(=O)O)cc2)cc1CCCC(=O)O [CNBCA] , can you help?
Reply: 4.46
